- System: HOP-62 NSCLC
- Measurement Description: NCI tumour cell line growth inhibition, 48 h
Provide the reported TGI of each item.
Numbers only, in µM.

Given Smiles: COc1cc2cn3c4ccc(O)cc4[nH]c(=O)c3c2cc1OC
Value Reported: 1.81

For each of the items listed, what is its TGI?
1. Nc1nc(Nc2ccccc2)c2ncn(Cc3cc4c(cc3Br)OCO4)c2n1
2. O=C(CN(C1CCCCC1)C1CCCCC1)Nc1ccc(S(=O)(=O)c2ccc(NC(=O)CN(C3CCCCC3)C3CCCCC3)cc2)cc1
3. COc1ccc(CCNC2=CC(=O)c3ncccc3C2=O)cc1OC
4. COc1c(C)c2c(c(C)c1Cl)Oc1c(C=O)c(O)c(Cl)c(C)c1C(=O)O2
5. CCN(CC)CC(C)(C)C(=O)/C=C/c1ccc(Cl)c(Cl)c1

stdout:
7.65
3.56
7.9
93.7
3.29

The values you see were collected from PubChem BioAssay (NCI).
